Target or system: HCV NS3 helicase (Hepatitis C virus genotype 1b, UniProt P26663)
Construct: full-length NS3 (1-631), purified at Array BioPharma
Sequence (P26663 1027-1657): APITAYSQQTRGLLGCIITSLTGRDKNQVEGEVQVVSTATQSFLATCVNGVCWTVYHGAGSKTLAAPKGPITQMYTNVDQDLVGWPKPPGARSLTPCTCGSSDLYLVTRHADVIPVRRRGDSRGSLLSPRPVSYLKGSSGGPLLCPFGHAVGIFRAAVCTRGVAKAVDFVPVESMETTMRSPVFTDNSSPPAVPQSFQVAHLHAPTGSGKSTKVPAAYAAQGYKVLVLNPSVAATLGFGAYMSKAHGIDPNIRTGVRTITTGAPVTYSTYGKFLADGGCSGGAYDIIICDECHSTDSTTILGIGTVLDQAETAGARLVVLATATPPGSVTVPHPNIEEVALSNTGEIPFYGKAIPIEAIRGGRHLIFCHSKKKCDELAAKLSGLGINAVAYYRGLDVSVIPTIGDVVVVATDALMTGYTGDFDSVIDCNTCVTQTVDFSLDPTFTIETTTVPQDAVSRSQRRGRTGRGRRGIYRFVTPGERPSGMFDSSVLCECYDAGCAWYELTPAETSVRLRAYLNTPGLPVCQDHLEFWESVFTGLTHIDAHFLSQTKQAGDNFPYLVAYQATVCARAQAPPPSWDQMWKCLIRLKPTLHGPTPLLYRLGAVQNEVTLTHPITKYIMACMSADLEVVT
Assay summary: HCV Helicase Prompt FRET Assay (Example A)
Type: biochemical
Condition info: Table 31, compounds made using Schemes 38-45; read-out: IC50 Activity
The following molecules are listed with their measured IC50 values.
Measured property: IC50

[
  {
    "Compound structure string": "Nn1cc(-c2ccc3c(CC(=O)O)cn(Cc4csc5ccc(Cl)cc45)c3c2)c(=O)n(N)c1=O",
    "Target or system": "HCV NS3 helicase (Hepatitis C virus genotype 1b, UniProt P26663)",
    "Measured property": "IC50",
    "Test value": "> 50 µM"
  },
  {
    "Compound structure string": "CNc1cc(N)cc(-c2ccc3c(CC(=O)O)cn(Cc4csc5ccc(Cl)cc45)c3c2)c1",
    "Target or system": "HCV NS3 helicase (Hepatitis C virus genotype 1b, UniProt P26663)",
    "Measured property": "IC50",
    "Test value": "< 10 µM"
  },
  {
    "Compound structure string": "NC(=O)c1ccc(N)cc1-c1ccc2c(CC(=O)O)cn(Cc3csc4ccc(Cl)cc34)c2c1",
    "Target or system": "HCV NS3 helicase (Hepatitis C virus genotype 1b, UniProt P26663)",
    "Measured property": "IC50",
    "Test value": "10 to 50 µM"
  },
  {
    "Compound structure string": "Nc1ccnc(-c2ccc3c(CC(=O)O)cn(Cc4csc5ccc(Cl)cc45)c3c2)n1",
    "Target or system": "HCV NS3 helicase (Hepatitis C virus genotype 1b, UniProt P26663)",
    "Measured property": "IC50",
    "Test value": "< 10 µM"
  },
  {
    "Compound structure string": "CC(=O)Nc1cc(NC(C)=O)cc(-c2ccc3c(CC(=O)O)cn(Cc4csc5ccc(Cl)cc45)c3c2)c1",
    "Target or system": "HCV NS3 helicase (Hepatitis C virus genotype 1b, UniProt P26663)",
    "Measured property": "IC50",
    "Test value": "< 10 µM"
  },
  {
    "Compound structure string": "O=C(O)Cc1cn(Cc2csc3ccc(Cl)cc23)c2cc(-c3cccc(O)c3)ccc12",
    "Target or system": "HCV NS3 helicase (Hepatitis C virus genotype 1b, UniProt P26663)",
    "Measured property": "IC50",
    "Test value": "< 10 µM"
  },
  {
    "Compound structure string": "CC(C)Nc1cc(NC(C)C)cc(-c2ccc3c(CC(=O)O)cn(Cc4csc5ccc(Cl)cc45)c3c2)c1",
    "Target or system": "HCV NS3 helicase (Hepatitis C virus genotype 1b, UniProt P26663)",
    "Measured property": "IC50",
    "Test value": "< 10 µM"
  },
  {
    "Compound structure string": "Nn1cc(-c2ccc3c(CC(=O)O)cn(Cc4csc5ccc(Cl)cc45)c3c2)c(=O)[nH]c1=O",
    "Target or system": "HCV NS3 helicase (Hepatitis C virus genotype 1b, UniProt P26663)",
    "Measured property": "IC50",
    "Test value": "10 to 50 µM"
  },
  {
    "Compound structure string": "CNc1cc(NC)cc(-c2ccc3c(CC(=O)O)cn(Cc4csc5ccc(Cl)cc45)c3c2)c1",
    "Target or system": "HCV NS3 helicase (Hepatitis C virus genotype 1b, UniProt P26663)",
    "Measured property": "IC50",
    "Test value": "< 10 µM"
  },
  {
    "Compound structure string": "Nc1nc(Cl)c(C=O)c(-c2ccc3c(CC(=O)O)cn(Cc4csc5ccc(Cl)cc45)c3c2)n1",
    "Target or system": "HCV NS3 helicase (Hepatitis C virus genotype 1b, UniProt P26663)",
    "Measured property": "IC50",
    "Test value": "< 10 µM"
  },
  {
    "Compound structure string": "Nc1nc(Cl)cc(-c2ccc3c(CC(=O)O)cn(Cc4csc5ccc(Cl)cc45)c3c2)n1",
    "Target or system": "HCV NS3 helicase (Hepatitis C virus genotype 1b, UniProt P26663)",
    "Measured property": "IC50",
    "Test value": "< 10 µM"
  },
  {
    "Compound structure string": "Nc1cc(N)nc(-c2ccc3c(CC(=O)O)cn(Cc4csc5ccc(Cl)cc45)c3c2)n1",
    "Target or system": "HCV NS3 helicase (Hepatitis C virus genotype 1b, UniProt P26663)",
    "Measured property": "IC50",
    "Test value": "10 to 50 µM"
  },
  {
    "Compound structure string": "Cc1ccccc1-c1ccc2c(CC(=O)O)cn(Cc3csc4ccc(Cl)cc34)c2c1",
    "Target or system": "HCV NS3 helicase (Hepatitis C virus genotype 1b, UniProt P26663)",
    "Measured property": "IC50",
    "Test value": "< 10 µM"
  },
  {
    "Compound structure string": "COC(=O)c1ccc(N)cc1-c1ccc2c(CC(=O)O)cn(Cc3csc4ccc(Cl)cc34)c2c1",
    "Target or system": "HCV NS3 helicase (Hepatitis C virus genotype 1b, UniProt P26663)",
    "Measured property": "IC50",
    "Test value": "< 10 µM"
  },
  {
    "Compound structure string": "CC(C)Nc1cc(N)cc(-c2ccc3c(CC(=O)O)cn(Cc4csc5ccc(Cl)cc45)c3c2)c1",
    "Target or system": "HCV NS3 helicase (Hepatitis C virus genotype 1b, UniProt P26663)",
    "Measured property": "IC50",
    "Test value": "< 10 µM"
  },
  {
    "Compound structure string": "CNc1nc(-c2ccc3c(CC(=O)O)cn(Cc4csc5ccc(Cl)cc45)c3c2)nc2[nH]cnc12",
    "Target or system": "HCV NS3 helicase (Hepatitis C virus genotype 1b, UniProt P26663)",
    "Measured property": "IC50",
    "Test value": "< 10 µM"
  }
]

---

Target or system: HCV NS3 helicase (Hepatitis C virus genotype 1b)
Construct: full-length NS3 (1-631), purified at Array BioPharma
Assay summary: HCV Helicase Prompt FRET Assay (Example A)
Format: biochemical
Condition info: Table 37, compounds made using Scheme 55; read-out: IC50 Activity
pIC50: −log10 of the molar value.

[
  {
    "Compound structure string": "O=C(O)Cc1cn(Cc2csc3ccc(Cl)cc23)c2cc(-c3ccccc3F)ccc12",
    "pIC50": "< 4.30"
  },
  {
    "Compound structure string": "N#Cc1ccc(-c2ccc3c(CC(=O)O)cn(Cc4csc5ccc(Cl)cc45)c3c2)cc1",
    "pIC50": "4.30 to 5.00"
  },
  {
    "Compound structure string": "NC(=O)Nc1ccccc1-c1ccc2c(CC(=O)O)cn(Cc3csc4ccc(Cl)cc34)c2c1",
    "pIC50": "< 4.30"
  },
  {
    "Compound structure string": "N#Cc1cccc(-c2ccc3c(CC(=O)O)cn(Cc4csc5ccc(Cl)cc45)c3c2)c1",
    "pIC50": "4.30 to 5.00"
  },
  {
    "Compound structure string": "O=C(O)Cc1cn(Cc2csc3ccc(Cl)cc23)c2cc(-c3ccncc3)ccc12",
    "pIC50": "4.30 to 5.00"
  },
  {
    "Compound structure string": "N#Cc1ccccc1-c1ccc2c(CC(=O)O)cn(Cc3csc4ccc(Cl)cc34)c2c1",
    "pIC50": "< 4.30"
  },
  {
    "Compound structure string": "Cc1ccc(-c2ccc3c(CC(=O)O)cn(Cc4csc5ccc(Cl)cc45)c3c2)cc1",
    "pIC50": "< 4.30"
  },
  {
    "Compound structure string": "O=C(O)Cc1cn(Cc2csc3ccc(Cl)cc23)c2cc(-c3ccc(Cl)cc3)ccc12",
    "pIC50": "< 4.30"
  },
  {
    "Compound structure string": "O=C(O)Cc1cn(Cc2csc3ccc(Cl)cc23)c2cc(-c3cccc(CO)c3)ccc12",
    "pIC50": "4.30 to 5.00"
  },
  {
    "Compound structure string": "NC(=O)c1ccccc1-c1ccc2c(CC(=O)O)cn(Cc3csc4ccc(Cl)cc34)c2c1",
    "pIC50": "< 4.30"
  },
  {
    "Compound structure string": "CC(=O)Nc1cccc(-c2ccc3c(CC(=O)O)cn(Cc4csc5ccc(Cl)cc45)c3c2)c1",
    "pIC50": "4.30 to 5.00"
  },
  {
    "Compound structure string": "Nc1cccc(-c2ccc3c(CC(=O)O)cn(Cc4csc5ccc(Cl)cc45)c3c2)c1",
    "pIC50": "> 5.00"
  },
  {
    "Compound structure string": "O=C(O)Cc1cn(Cc2csc3ccc(Cl)cc23)c2cc(-c3cccc(Cl)c3)ccc12",
    "pIC50": "< 4.30"
  },
  {
    "Compound structure string": "COc1cccc(-c2ccc3c(CC(=O)O)cn(Cc4csc5ccc(Cl)cc45)c3c2)c1",
    "pIC50": "< 4.30"
  },
  {
    "Compound structure string": "CN(C)C(=O)c1cccc(-c2ccc3c(CC(=O)O)cn(Cc4csc5ccc(Cl)cc45)c3c2)c1",
    "pIC50": "4.30 to 5.00"
  },
  {
    "Compound structure string": "O=C(O)Cc1cn(Cc2csc3ccc(Cl)cc23)c2cc(-c3cccc(F)c3)ccc12",
    "pIC50": "< 4.30"
  }
]
